System: RXF 393
Experiment: NCI tumour cell line growth inhibition, 48 h
Active and inactive are the calls of the source. Rule as the data show it: active = GI50 up to about 1.1 µM and inactive = higher.
API: response.call in active, inactive

Past entries and their recorded results:
# compound, category label
measured = [
    ("O=P1(c2ccccc2)c2ccccc2CCc2ccccc21", "inactive"),
    ("Cc1cc(C)nc(NC(=S)Nc2ccc([N+](=O)[O-])cc2)c1", "inactive"),
    ("O=[N+]([O-])/C=C/c1cccc(F)c1", "inactive"),
    ("c1ccc(-c2cc(-c3ccccc3)nc(-c3ccncc3)c2)cc1", "inactive"),
    ("[N-]=[N+]=Nc1ccccc1C(=O)N1C(=O)c2ccccc2C(=O)N(C(=O)c2ccccc2N=[N+]=[N-])c2ccccc21", "inactive"),
]

Please examine the following record next.
-- ask Kindly provide the recorded test outcome for the following compound: Fc1cccc(C2SCc3nc4cc5ccccc5cc4n32)c1 (stereo unspecified)
-- reply inactive
